- assayInfo: Toxicokinetics of PNA5 in Sprague Dawley rat plasma
- recordedConditions: both, Sprague Dawley, rat, plasma, sc, 1 mg/kg/day, Cmax, Sprague Dawley rats, plasma, s.c. once daily 1 mg/kg/day, day 1, sexes combined, mean ± SD, n = 6, UHPLC-MS/MS, noncompartmental
Peptide text beside a SMILES is read from it. * marks the point of attachment. βGlc = OC[C@H]1O[C@@H](*)[C@H](O)[C@@H](O)[C@@H]1O
measuredAttribute: Cmax

>>> result("CC[C@H](C)[C@H](NC(=O)[C@H](Cc1ccc(O)cc1)NC(=O)[C@@H](NC(=O)[C@H](CCCNC(=N)N)NC(=O)[C@@H](N)CC(=O)O)C(C)C)C(=O)N[C@@H](Cc1c[nH]cn1)C(=O)N[C@@H](CO[C@@H]1O[C@H](CO)[C@@H](O)[C@H](O)[C@H]1O)C(N)=O [PNA5, Ang-1–6-Ser-O-Glu-NH2] (H-DRVYIHS(βGlc)-NH2)")
"0.591 ng/mL"

FYI, the data here is from paper PMC12612990.
